B1: library; numbered along this chain (parent)
chain: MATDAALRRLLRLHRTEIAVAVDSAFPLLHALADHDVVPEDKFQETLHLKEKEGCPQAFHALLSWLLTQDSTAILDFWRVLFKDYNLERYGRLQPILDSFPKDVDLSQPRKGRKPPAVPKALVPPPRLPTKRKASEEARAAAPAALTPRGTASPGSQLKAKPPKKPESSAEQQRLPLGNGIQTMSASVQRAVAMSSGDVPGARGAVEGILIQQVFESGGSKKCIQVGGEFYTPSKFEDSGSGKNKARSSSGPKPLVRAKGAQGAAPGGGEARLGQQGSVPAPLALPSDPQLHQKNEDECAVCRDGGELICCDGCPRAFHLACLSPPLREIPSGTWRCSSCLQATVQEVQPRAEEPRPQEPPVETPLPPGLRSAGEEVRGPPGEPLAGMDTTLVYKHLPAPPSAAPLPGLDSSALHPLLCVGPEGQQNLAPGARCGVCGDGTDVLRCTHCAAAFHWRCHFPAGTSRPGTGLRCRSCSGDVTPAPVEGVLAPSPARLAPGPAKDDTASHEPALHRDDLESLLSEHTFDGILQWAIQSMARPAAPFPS

Variants of: B1
Test: AIRE transcriptional activation functional score (insulin promoter-GFP; nonsense median 0, synonymous median 1) (normalised score); higher = higher AIRE activity (more reporter activation)
Conditions: with insulin promoter-GFP reporter in HEK293
# label = Y if AIRE transcriptional activation functional score >= 0.7 else N

Is reported AIRE transcriptional activation functional score greater than or equal to 0.7 here: `P39M`
N

Dear colleague, could you confirm whether `A343L` has AIRE transcriptional activation functional score at or above 0.7?
Y

Check this variant for AIRE transcriptional activation functional score at or above 0.7: `F43L`
N

Reported AIRE transcriptional activation functional score at or above 0.7? `R351V`
Y

API: above_or_equal(metric=AIRE transcriptional activation functional score, cutoff=0.7) for item `D23L`
N

Please check the record `S250G` and state if its AIRE transcriptional activation functional score is at or above 0.7.
Y

Please tell me: is the variant `H396R` at or over 0.7 in terms of AIRE transcriptional activation functional score?
Y

Is reported AIRE transcriptional activation functional score greater than or equal to 0.7 here: `R8H`
N

Please indicate if the recorded AIRE transcriptional activation functional score for `A500G` meets or exceeds 0.7.
Y

Has `D526S` a recorded AIRE transcriptional activation functional score greater than or equal to 0.7?
N

// inclusive: AIRE transcriptional activation functional score at least 0.7? input: `R174P`
Y
